Values compiled from patent US20240309003A1.

measured.on: human TREM2 (Homo sapiens, UniProt Q9NZC2)
Construct: expressed in transfected cells; host or cells: HEK293T
Sequence (Q9NZC2 19-230): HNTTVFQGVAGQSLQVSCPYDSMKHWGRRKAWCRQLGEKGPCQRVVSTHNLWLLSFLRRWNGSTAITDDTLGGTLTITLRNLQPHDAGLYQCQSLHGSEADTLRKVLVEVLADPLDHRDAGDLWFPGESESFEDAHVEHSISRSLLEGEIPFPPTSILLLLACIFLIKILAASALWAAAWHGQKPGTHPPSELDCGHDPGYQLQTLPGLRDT
Sequence (O43914 22-113 partner): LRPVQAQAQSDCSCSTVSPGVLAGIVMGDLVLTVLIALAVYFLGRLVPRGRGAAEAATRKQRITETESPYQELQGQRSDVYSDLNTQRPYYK
method: TREM2 agonist potency by cellular phosphorylation of Syk (AlphaLisa) in HEK293T-hTREM2 cells
Format: cell-based
particulars: HEK293 cells expressing human TREM2 and DAP12, Table D
Reported EC50 values for a set of compounds

[2H]C1([2H])C[C@@H](c2nc(-c3ccc(Cl)cc3F)c3nc(C)c(C)nc3n2)C[C@@]([2H])(c2cnn(C3CC3)c2)O1 50 to 500 nM
COc1cccc([C@@H]2C[C@H](c3nc(C45CC(C(F)(F)F)(C4)C5)c4nc(C)c(C)nc4n3)CCO2)n1 500 to 3000 nM
Cc1cc([C@@H]2C[C@H](c3cc(-c4ccc(Cl)c(F)c4F)c4cc(C)c(C)nc4n3)CCO2)ccn1 < 50 nM

Cc1cc([C@@H]2C[C@H](c3cc(-c4ccc(Cl)cc4F)c4cc(C)c(C)nc4n3)CCO2)ccn1 on human TREM2 (Homo sapiens, UniProt Q9NZC2) gives EC50 = 500 to 3000 nM

----------
measured.on: human TREM2 (Homo sapiens, UniProt Q9NZC2)
Construct: expressed in transfected cells; host or cells: HEK293T
method: TREM2 agonist potency by cellular phosphorylation of Syk (AlphaLisa) in HEK293T-hTREM2 cells
Assay type: cell-based
particulars: HEK293 cells expressing human TREM2 and DAP12, Table D-2
# key: entry, value: EC50

molecule	EC50
Cc1nc2nc(N3C[C@@H](C)O[C@@H](c4cnn(C5CC5)c4CO)C3)nc(-c3ccc(F)cc3F)c2nc1C	50 to 500 nM
Cc1nc2cc([C@H]3CCO[C@@H](c4cnn(C5CC5)c4)C3)nc(-c3ccc(F)cc3F)c2nc1C(F)F	< 50 nM
Cc1nc2nc(C3CCS(=O)(=O)N(c4cnn(C5CC5)c4)C3)nc(-c3ccc(Cl)cc3F)c2nc1C (racemic)	50 to 500 nM
Cc1nc2nc(N3C[C@@H](C)O[C@@H](c4cnn(C5CC5)c4)C3)cc(C#CC3CC3)c2nc1C	500 to 3000 nM
Cc1nc2nc([C@@H]3CCO[C@@H](c4cnc(C5CC5)o4)C3)nc(-c3ccc(F)cc3F)c2nc1C (single isomer, unassigned)	500 to 3000 nM

Field: next molecule
Simply: Cc1nc2nc(N3C[C@@H](C)O[C@@H](c4cnn(C(F)F)c4)C3)nc(-c3ccc(F)cc3F)c2nc1C , human TREM2 (Homo sapiens, UniProt Q9NZC2), EC50 = < 50 nM

----------
measured.on: human TREM2 (Homo sapiens)
Construct: expressed in transfected cells; host or cells: HEK293T
method: TREM2 agonist potency by cellular phosphorylation of Syk (AlphaLisa) in HEK293T-hTREM2 cells
Assay type: cell-based
particulars: HEK293 cells expressing human TREM2 and DAP12, Table D-2
pEC50: −log10 of the molar value.
metric: pEC50

Look over these answered cases.
compound	measured.on	pEC50
Cc1nc2nc(N3CCOC(c4cnn5c4CCC5)C3)nc(-c3ccc(F)cc3F)c2nc1C (stereo in doubt)	human TREM2 (Homo sapiens)	6.30 to 7.30
CCCc1nc2nc(N3C[C@@H](C)O[C@@H](c4cnn(C5CC5)c4)C3)nc(-c3ccc(F)cc3F)c2nc1C (single isomer, unassigned)	human TREM2 (Homo sapiens)	> 7.30
Cc1nc2nc([C@H]3CCO[C@@H](c4cnn(C5CC5)c4)C3)nc(-c3ccc(C4CC4)cc3F)c2nc1C	human TREM2 (Homo sapiens)	6.30 to 7.30
Cc1nc2nc([C@H]3CCO[C@@H](c4cnn(C5CC5)c4)C3)nc(-c3ccc(F)cc3F)c2nc1C1CCCCC1	human TREM2 (Homo sapiens)	6.30 to 7.30
Cc1nc2c(-c3ccc(C(F)(F)F)cc3F)cn([C@H]3CCO[C@@H](c4cnn(C5CC5)c4)C3)c(=O)c2nc1C	human TREM2 (Homo sapiens)	4.00 to 5.52

Data point: Cc1nc2nc(N3C[C@H](CO)O[C@H](c4cnn(C5CC5)c4)C3)nc(-c3ccc(F)cc3F)c2nc1C ; pEC50 = 4.00 to 5.52

Reported pEC50 of Cc1nc2nc(N3C[C@@H](C)O[C@@H](c4cnn(C5CC5)c4)C3)nc(-c3ccc4c(c3F)CCC4(F)F)c2nc1C : > 7.30

Looking up Cc1nc2nc(N3CCCO[C@H](c4cnn(C5CC5)c4)C3)nc(-c3ccc(F)cc3F)c2nc1C (stereo in doubt) , I found its pEC50 recorded as 5.52 to 6.30

Form: compound = Cc1nc2nc(N3C[C@@H](C)O[C@@H](c4cnn(C5CC5)c4)C3)nc(-c3cc(C(F)F)c(F)cc3F)c2nc1C (stereo in doubt) ; pEC50 = > 7.30

response.value for Cc1nc2nc([C@H]3CCO[C@@H](c4cnn(CC5CC5)c4)C3)nc(-c3ccc(C(F)(F)F)cc3F)c2nc1C (field: pEC50) = > 7.30

Field pEC50 (entry Cc1nc2cc([C@H]3CCO[C@@H](c4cnn(C5CC5)c4)C3)nc(-c3ccc(F)cc3F)c2nc1CC#N ) reads 5.52 to 6.30

----------
measured.on: human TREM2 (Homo sapiens, UniProt Q9NZC2)
Construct: expressed in transfected cells; host or cells: HEK293T
method: TREM2 agonist potency by cellular phosphorylation of Syk (AlphaLisa) in HEK293T-hTREM2 cells
Type: cell-based
particulars: HEK293 cells expressing human TREM2 and DAP12, Table D
pEC50: −log10 of the molar value.
Listed next: entries and their corresponding pEC50.

Solved cases (4 shown):
compound	reported.result
Cc1cnc2c(-c3ccc(Cl)cc3F)nc([C@H]3C[C@@H](c4cnn(C5CC5)c4)O[C@@H](C)C3)nc2n1	> 7.30
Cc1ccc(-c2nc(N3C[C@@H](C)O[C@@H](c4cnn(C5CC5)c4)C3)nc3nc(C)c(C)nc23)s1	6.30 to 7.30
Cc1cc([C@H]2C[C@@H](c3nc(-c4ccc(C(F)(F)F)nc4)c4nc(C)c(C)nc4n3)CCO2)ccn1 (racemic)	6.30 to 7.30
Cc1ccc(-c2nc(N3C[C@@H](C)O[C@@H](c4cnn(C5CC5)c4)C3)nc3nc(C)c(C)nc23)o1	6.30 to 7.30

Noted for Cc1nc2nc([C@@H]3CCO[C@H](c4cccn(C)c4=O)C3)nc(-c3ccc(F)cc3F)c2nc1C : its pEC50 reads 5.52 to 6.30

get_value(item= Cc1cc([C@H]2C[C@@H](c3nc(-c4cc(F)c(Cl)c(F)c4)c4nc(C)c(C)nc4n3)CCO2)ccn1 [Example 133] , readout=pEC50) returns > 7.30

# pEC50 of [2H]C([2H])([2H])c1nc2nc([C@H]3CCO[C@@H](c4ccnc(C)c4)C3)nc(-c3ccc(Cl)c(F)c3F)c2nc1C([2H])([2H])[2H] = > 7.30

----------
measured.on: human TREM2 (Homo sapiens, UniProt Q9NZC2)
Construct: expressed in transfected cells; host or cells: HEK293T
method: TREM2 agonist potency by cellular phosphorylation of Syk (AlphaLisa) in HEK293T-hTREM2 cells
Format: cell-based
particulars: HEK293 cells expressing human TREM2 and DAP12, Table D-2
pEC50: −log10 of the molar value.
Known pEC50 of a selection of compounds

Answered examples (2):
Cc1nc2nc(N3C[C@@H](C)O[C@@H](c4cnn(C5CC5)c4)C3)nc(-c3ccc(F)cc3F)c2nc1C(F)F > 7.30
Cc1nc2nc(N3C[C@@H](c4cnn(C5CC5)c4)O[C@@H](C(F)F)C3)nc(-c3ccc(C(F)(F)F)cc3F)c2nc1C > 7.30

Alright, here's another compound for you.
Recorded pEC50 for COCn1cc([C@H]2CN(c3nc(-c4ccc(F)cc4F)c4nc(C)c(C)nc4n3)C[C@@H](C3CC3)O2)cn1 on human TREM2 (Homo sapiens, UniProt Q9NZC2) was > 7.30

----------
measured.on: human TREM2 (Homo sapiens)
Construct: expressed in transfected cells; host or cells: HEK293T
method: TREM2 agonist potency by cellular phosphorylation of Syk (AlphaLisa) in HEK293T-hTREM2 cells
Format: cell-based
particulars: HEK293 cells expressing human TREM2 and DAP12, Table D
// reported EC50 for each item listed

Some solved entries appear below for comparison.
molecule	EC50
Cc1nc2nc([C@H]3CCO[C@@H](c4cnn(C5CC5)c4)C3)nc(C3CCC(F)(F)CC3)c2nc1C [Example 180]	< 50 nM
Cc1nc2nc([C@@H]3CCO[C@H](c4cnn(C5CC(F)C5)c4)C3)nc(C34CC(C(F)(F)F)(C3)C4)c2nc1C (stereo in doubt) [Example 134]	< 50 nM
Cc1nc2nc([C@H]3CCO[C@@H](c4cccn(C)c4=O)C3)nc(-c3ccc(F)cc3F)c2nc1C [Example 203]	3000 to 100000 nM

molecule Cc1nc2nc([C@H]3CCO[C@@H](c4cnn(C5CC5)c4)C3)cc(-c3ccc(Cl)cc3F)c2nc1C [Example 224] , EC50 observed: < 50 nM

Summary for this molecule, Cc1nc2nc([C@H]3C[C@@H](C)O[C@@H](c4cnn(C5CC5)c4)C3)nc(-c3ccc(C(F)(F)F)cc3)c2nc1C [Example 159] : EC50 is < 50 nM

The molecule listed as Cc1nc2nc([C@@H]3CCO[C@@H](c4cnn(C5CC5)c4)C3)cc(-c3ccc(Cl)cc3F)c2nc1C [Example 223] shows EC50 equal to 50 to 500 nM

What the record says about COc1ncccc1[C@H]1C[C@@H](c2nc(C34CC(C(F)(F)F)(C3)C4)c3nc(C)c(C)nc3n2)CCO1 [Example 144] : EC50 is 50 to 500 nM

Item: Cc1nc2nc(N3CCN(C)C(c4cnn(C5CC5)c4)C3)nc(-c3ccc(Cl)cc3F)c2nc1C (stereo not drawn) [Example 205] | EC50: < 50 nM

Noted for Cc1ccc2c(-c3ccc(F)cc3F)nc([C@H]3CCO[C@@H](c4cnn(C5CC5)c4)C3)nc2n1 [Example 215] : its EC50 reads 50 to 500 nM

EC50 reported for this molecule Cc1cnc2c(-c3ccc(F)cc3F)nc(N3C[C@@H](C)O[C@@H](c4cnn(C5CC5)c4)C3)cc2n1 [Example 209] : 50 to 500 nM

Query Cc1cc([C@H]2C[C@@H](c3nc(-c4ccc(Cl)c(F)c4F)c4ncc(C)nc4n3)CCO2)ccn1 (racemic) [Example 89] yields EC50 of < 50 nM
